Where do the numbers come from? From patent US12577267B2.

- experimental_target: UniProt Q92918
- Sequence (Q92918 whole entry): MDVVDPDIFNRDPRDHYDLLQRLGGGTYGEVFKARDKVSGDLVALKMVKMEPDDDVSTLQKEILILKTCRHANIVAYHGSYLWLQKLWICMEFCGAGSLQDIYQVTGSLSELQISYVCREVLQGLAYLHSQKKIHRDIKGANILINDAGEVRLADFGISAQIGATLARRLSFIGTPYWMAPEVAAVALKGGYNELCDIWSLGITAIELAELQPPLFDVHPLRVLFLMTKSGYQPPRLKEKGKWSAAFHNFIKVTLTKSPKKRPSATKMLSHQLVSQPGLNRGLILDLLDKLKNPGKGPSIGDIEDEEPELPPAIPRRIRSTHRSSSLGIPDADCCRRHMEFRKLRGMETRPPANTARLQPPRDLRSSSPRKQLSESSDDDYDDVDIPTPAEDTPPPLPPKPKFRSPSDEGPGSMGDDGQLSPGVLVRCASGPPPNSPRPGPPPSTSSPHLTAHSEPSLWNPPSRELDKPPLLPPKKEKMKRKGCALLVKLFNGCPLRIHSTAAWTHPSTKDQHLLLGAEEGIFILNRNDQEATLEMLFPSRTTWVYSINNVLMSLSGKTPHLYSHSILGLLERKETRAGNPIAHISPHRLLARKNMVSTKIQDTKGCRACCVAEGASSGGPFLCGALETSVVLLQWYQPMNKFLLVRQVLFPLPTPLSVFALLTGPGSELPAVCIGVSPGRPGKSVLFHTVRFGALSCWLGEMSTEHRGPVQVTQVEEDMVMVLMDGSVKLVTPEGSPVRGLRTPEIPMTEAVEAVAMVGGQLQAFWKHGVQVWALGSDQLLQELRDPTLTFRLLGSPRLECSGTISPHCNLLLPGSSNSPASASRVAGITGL
- protocol_description: FRET one step binding assay (tracer displacement)
- recorded_conditions: 10 μM compound
Where a name gives a salt, the structure may show the parent alone.
metric_name: inhibition at 10 µM (%)

{"compound": "COc1cc2c(cc1Nc1ncc(C(N)=O)c(Nc3ccc(OS(=O)(=O)F)cc3P(C)(C)=O)n1)CN(C)CC2 [Example 3, dihydrochloride]", "readout_number": 91.2}
{"compound": "CN1CCc2cc(O)c(Nc3ncc(Cl)c(Nc4ccc(OS(=O)(=O)F)cc4P(C)(C)=O)n3)cc2C1 [Example 61, dihydrochloride]", "readout_number": 89.7}
{"compound": "COc1cc2c(cc1Nc1ncc(Cl)c(Nc3ccc(OS(=O)(=O)F)cc3P(C)(C)=O)n1)CN(C)C(C)C2 (single isomer, unassigned; isomer 1) [Example 33]", "readout_number": 87.8}
{"compound": "COc1cc2c(cc1Nc1ncc(Cl)c(Nc3ccc(OS(=O)(=O)F)cc3P(C)(C)=O)n1)CN(C)C(C)(C)C2 [Example 25, dihydrochloride]", "readout_number": 90.7}
{"compound": "COc1cc2c(cc1Nc1ncc(Cl)c(Nc3cc(OS(=O)(=O)F)ccc3P(C)(C)=O)n1)C(C)N(C)CC2 (single isomer, unassigned; isomer 1) [Example 31]", "readout_number": 89}
{"compound": "COc1cc2c(cc1Nc1ncc(Cl)c(Nc3ncc(OS(=O)(=O)F)cc3P(C)(C)=O)n1)C(C)N(C)CC2 (single isomer, unassigned; isomer 1) [Example 23]", "readout_number": 89.6}
{"compound": "COc1cc2c(cc1Nc1ncc(Cl)c(Nc3ccc(OS(=O)(=O)F)cc3P(C)(C)=O)n1)C(=O)N(C)CC2 [Example 17]", "readout_number": 90.2}
{"compound": "COc1cc2c(cc1Nc1ncc(Cl)c(Nc3ccc(OC(F)(F)F)cc3P(C)(C)=O)n1)CN(C)CC2 [Example 47]", "readout_number": 88}
